System: A549 cells
ASSAY_PROTOCOL: XTT cytotoxicity assay, lung cancer cells
Type: cell-based, human
SETUP_CONDITIONS: Homo sapiens, A549; XTT assay; exposure time of the IC50 not stated (24, 48, 72 h tested); read-out: IC50, lung cancer (A549)
# pIC50 values compiled below
Worth noting: pIC50 values are minus log10 of concentrations stated in mol/L.

INSERT INTO assay_data (compound_smiles, measured_target, property_label, recorded_number) VALUES
  ('Brc1ccccc1C1=CC(c2ccccc2)=NC/C(=C/C#Cc2ccccc2)S1', 'A549 cells', 'pIC50', 4.34),
  ('C(#Cc1ccccc1)/C=C1/CN=C(c2ccsc2)C=C(c2ccccc2)S1', 'A549 cells', 'pIC50', 3.95);

Attention now turns to another entry.
[Q] Please report pIC50 with A549 cells for item Clc1ccc(C2=CC(c3ccccc3)=NC/C(=C/C#Cc3ccccc3)S2)cc1 .
[A] 4.15

Origin of values: paper PMC11740379
